Molecular target: T1, human prolactin receptor (PRLR) (human, UniProt P16471 25-622)
T1 sequence: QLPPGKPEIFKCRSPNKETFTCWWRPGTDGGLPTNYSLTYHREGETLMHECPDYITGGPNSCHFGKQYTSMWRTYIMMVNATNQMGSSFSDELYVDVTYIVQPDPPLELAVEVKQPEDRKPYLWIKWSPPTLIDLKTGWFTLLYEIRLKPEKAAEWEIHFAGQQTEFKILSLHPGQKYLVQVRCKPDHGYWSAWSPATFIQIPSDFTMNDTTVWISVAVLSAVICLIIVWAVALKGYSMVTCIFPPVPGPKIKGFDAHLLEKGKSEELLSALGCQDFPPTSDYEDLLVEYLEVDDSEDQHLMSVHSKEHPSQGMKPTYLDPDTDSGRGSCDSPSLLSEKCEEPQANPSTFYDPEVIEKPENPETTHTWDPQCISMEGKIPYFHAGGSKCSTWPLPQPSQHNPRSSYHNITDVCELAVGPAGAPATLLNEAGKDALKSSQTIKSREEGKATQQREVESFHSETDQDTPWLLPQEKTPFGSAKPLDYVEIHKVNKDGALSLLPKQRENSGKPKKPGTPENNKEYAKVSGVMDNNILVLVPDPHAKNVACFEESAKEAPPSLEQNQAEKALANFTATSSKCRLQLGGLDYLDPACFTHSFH
Test: cell-based or functional assay
PROPERTY NAME: IC50, cell viability, PC3/hPRLR cells

BINDER	PROPERTY NAME	RECORDED RESULT
H1H6953N-mc-VC-PAB-MMAE (antibody, human IgG1, V domains shown, MMAE conjugated through cleavable mc-vc-PAB linker; attachment residues not stated) VH: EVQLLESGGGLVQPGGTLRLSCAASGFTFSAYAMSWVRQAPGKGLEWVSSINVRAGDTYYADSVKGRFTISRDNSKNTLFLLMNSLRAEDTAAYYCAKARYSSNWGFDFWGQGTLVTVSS VL: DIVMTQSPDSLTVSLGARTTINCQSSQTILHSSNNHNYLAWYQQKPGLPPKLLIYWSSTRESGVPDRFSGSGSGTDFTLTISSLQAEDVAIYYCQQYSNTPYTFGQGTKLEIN	IC50, cell viability, PC3/hPRLR cells	0.2 nM
H1H6958N2-mc-VC-PAB-MMAE (antibody, human IgG1, V domains shown, MMAE conjugated through cleavable mc-vc-PAB linker; attachment residues not stated) VH: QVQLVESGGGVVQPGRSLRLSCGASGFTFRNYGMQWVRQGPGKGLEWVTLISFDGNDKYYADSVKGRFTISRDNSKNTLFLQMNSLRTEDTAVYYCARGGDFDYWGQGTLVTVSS VL: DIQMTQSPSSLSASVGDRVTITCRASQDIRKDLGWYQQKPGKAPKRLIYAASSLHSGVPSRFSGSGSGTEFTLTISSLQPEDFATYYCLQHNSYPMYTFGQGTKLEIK	IC50, cell viability, PC3/hPRLR cells	0.5 nM
H1H6765P-mc-VC-PAB-MMAE (antibody, human IgG1, V domains shown, MMAE conjugated through cleavable mc-vc-PAB linker; attachment residues not stated) VH: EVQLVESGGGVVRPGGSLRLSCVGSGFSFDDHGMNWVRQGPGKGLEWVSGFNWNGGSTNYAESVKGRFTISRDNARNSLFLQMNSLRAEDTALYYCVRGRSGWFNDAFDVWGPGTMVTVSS VL: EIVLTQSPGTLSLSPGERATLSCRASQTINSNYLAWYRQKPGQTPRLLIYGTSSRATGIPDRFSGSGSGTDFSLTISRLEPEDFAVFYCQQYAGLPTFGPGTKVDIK	IC50, cell viability, PC3/hPRLR cells	0.4 nM
H1H6958N2-DM1 (antibody, human IgG1, V domains shown, DM1 conjugated through SMCC linker; attachment residues not stated) VH: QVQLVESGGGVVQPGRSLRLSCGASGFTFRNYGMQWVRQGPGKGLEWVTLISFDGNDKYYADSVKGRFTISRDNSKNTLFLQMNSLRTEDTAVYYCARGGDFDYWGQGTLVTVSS VL: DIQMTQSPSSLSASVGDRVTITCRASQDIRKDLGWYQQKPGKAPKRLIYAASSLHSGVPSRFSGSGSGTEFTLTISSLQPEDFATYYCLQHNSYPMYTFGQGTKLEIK	IC50, cell viability, PC3/hPRLR cells	0.5 nM
H1H6953N-DM1 (antibody, human IgG1, V domains shown, DM1 conjugated through SMCC linker; attachment residues not stated) VH: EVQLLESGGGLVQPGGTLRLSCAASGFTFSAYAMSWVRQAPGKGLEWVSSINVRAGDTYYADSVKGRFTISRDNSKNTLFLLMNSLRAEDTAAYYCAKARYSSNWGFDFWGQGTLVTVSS VL: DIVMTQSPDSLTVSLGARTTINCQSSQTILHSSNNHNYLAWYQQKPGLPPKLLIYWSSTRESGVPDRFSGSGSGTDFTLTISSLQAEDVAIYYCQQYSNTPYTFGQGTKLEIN	IC50, cell viability, PC3/hPRLR cells	0.4 nM
H1H6765P-DM1 (antibody, human IgG1, V domains shown, DM1 conjugated through SMCC linker; attachment residues not stated) VH: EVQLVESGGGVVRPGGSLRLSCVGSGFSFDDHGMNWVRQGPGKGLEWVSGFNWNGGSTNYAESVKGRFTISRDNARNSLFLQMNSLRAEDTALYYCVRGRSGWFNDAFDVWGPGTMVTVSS VL: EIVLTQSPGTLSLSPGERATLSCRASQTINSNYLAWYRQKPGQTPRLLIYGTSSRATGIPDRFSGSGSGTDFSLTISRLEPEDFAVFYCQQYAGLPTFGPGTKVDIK	IC50, cell viability, PC3/hPRLR cells	0.3 nM

Source of measurements: patent US20180185504A1
